# targetDesc: LbCas12a (Cas12a, NEB M0653T) (Lachnospiraceae bacterium, UniProt A0A5S8WF58 1-1228)
# protocolSummary: activation kinetics
reportedProperty: Kd (nM)
The reply should be a number in nM, with the unit left off.

INSERT INTO measurements (binder, experimentalresult) VALUES
  ('crRNA-A2 + A2 ssDNA-t target (mixed) RNA: UAAUUUCUACUAAGUGUAGAUCAUGCCAAUGCGCGACAUUC DNA: TCGGAATGTCGCGCATTGGCATGGAAGTCACACCTT', 1.4);

--- query ---
I have this binder here, crRNA-A2 + A2 ssDNA target (mixed) RNA: UAAUUUCUACUAAGUGUAGAUCAUGCCAAUGCGCGACAUUC DNA: TTCTTCGGAATGTCGCGCATTGGCATGGAAGTCACACCTT , and I need its recorded Kd.
1.1
